- study.system: Indoleamine 2,3-dioxygenase 1 (Homo sapiens, UniProt P14902)
- Sequence (P14902 whole entry): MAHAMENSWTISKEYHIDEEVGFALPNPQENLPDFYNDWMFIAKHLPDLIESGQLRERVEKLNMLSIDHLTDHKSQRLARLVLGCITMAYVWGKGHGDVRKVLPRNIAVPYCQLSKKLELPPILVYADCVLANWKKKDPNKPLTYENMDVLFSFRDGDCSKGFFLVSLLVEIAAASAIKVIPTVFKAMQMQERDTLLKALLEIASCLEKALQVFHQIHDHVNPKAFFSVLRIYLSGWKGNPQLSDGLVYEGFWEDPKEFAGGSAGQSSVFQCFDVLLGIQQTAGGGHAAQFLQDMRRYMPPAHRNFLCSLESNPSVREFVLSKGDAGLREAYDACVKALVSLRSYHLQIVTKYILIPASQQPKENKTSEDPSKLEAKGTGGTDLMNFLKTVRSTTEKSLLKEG
- experiment.notes: Inhibition of human recombinant IDO1 using L-Trp as substrate assessed as kynurenine level after 30 mins
pIC50: −log10 of the molar value.
endpoint.name: pIC50

{"columns": ["compound", "pIC50"],
 "data": [
  ["COc1ccc(-c2c[nH]c3c2C(=O)c2c4c(cn2S(=O)(=O)c2ccc(C)cc2)CCN=C34)cc1", 5.38],
  ["COc1ccc(C(O)CNC2=CC(=O)c3ccn(S(=O)(=O)c4ccc(C)cc4)c3C2=O)cc1 (configuration not stated)", 5.60],
  ["COc1ccc(C2CNC3=C2C(=O)c2ccn(S(=O)(=O)c4ccc(C)cc4)c2C3=O)cc1 (configuration not stated)", 5.74]
]}

a = COc1ccc(C(O)CNC2=CC(=O)c3c(ccn3S(=O)(=O)c3ccc(C)cc3)C2=O)cc1 (configuration not stated)
b = COc1ccc(C2CNC3=C2C(=O)c2c(CCN)cn(S(=O)(=O)c4ccc(C)cc4)c2C3=O)cc1 (configuration not stated)
c = COc1ccc(-c2c[nH]c3c2C(=O)c2c(CCN)cn(S(=O)(=O)c4ccc(C)cc4)c2C3=O)cc1
d = COc1ccc(-c2c[nH]c3c2C(=O)c2[nH]ccc2C3=O)cc1
Parameters: sort_field (pIC50), sort_dir (desc). Provide the ranking by listing each label in its place in the requested order.
b, c, a, d
